Measurement target: T1, TNFR1 (Homo sapiens, UniProt P19438)
T1 chain: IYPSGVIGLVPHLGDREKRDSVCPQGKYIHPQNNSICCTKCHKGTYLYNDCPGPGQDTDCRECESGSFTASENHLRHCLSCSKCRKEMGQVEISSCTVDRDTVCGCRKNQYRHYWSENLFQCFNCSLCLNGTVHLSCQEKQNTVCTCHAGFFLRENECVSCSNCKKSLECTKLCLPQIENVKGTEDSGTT
Assay text: yeast display SC50
Assign apparent Kd (screen) to each entry below.
Please state the figure in nM; there is no need to write the unit.

Query: // apparent Kd (screen) lookup, key: E45S (designed binder) SMEEEVEKAAKEYEKKKKEAIEKHLEKLKAKDKEAAERFLKELESAAKEYAKDEAKTMSEEEAKRRAKKYKEKVLLSELSEEEQKEIKEAEEKLVRTILKYVEEAAK
Result: 2.73

Query: Another binder: A9L (designed binder) SMEEEVEKLAKEYEKKKKEAIEKHLEKLKAKDKEAAERFLKELEEAAKEYAKDEAKTMSEEEAKRRAKKYKEKVLLSELSEEEQKEIKEAEEKLVRTILKYVEEAAK
Result: 0.956

Query: Another binder: K93E (designed binder) SMEEEVEKAAKEYEKKKKEAIEKHLEKLKAKDKEAAERFLKELEEAAKEYAKDEAKTMSEEEAKRRAKKYKEKVLLSELSEEEQKEIKEAEEELVRTILKYVEEAAK
Result: 0.956

Query: Another binder: K68T (designed binder) SMEEEVEKAAKEYEKKKKEAIEKHLEKLKAKDKEAAERFLKELEEAAKEYAKDEAKTMSEEEAKRRATKYKEKVLLSELSEEEQKEIKEAEEKLVRTILKYVEEAAK
Result: 1.4
